# System: Candida albicans A26
# EXPERIMENTAL_PROTOCOL: in vitro antifungal activity, Candida albicans (MIC)
# Type: cell-based
# CONDITION_DETAILS: 35° C., 48 hours, RPMI 1640 plus 10% fetal calf serum, 95-100% inhibition of growth, read-out: minimum inhibitory concentration (MIC), C.a.
# Description: The antifungal activity was assayed in vitro against Candida abicans A26, Trichophyton mentagrophytes CDC27, and Aspergillus flavus M152. The inocula, previously frozen under liquid nitrogen in a lactose, glycerol and water solution, were standardized by counting spores with a hemocytometer. […] The minimum inhibitory concentration (MIC) values were determined as the highest dilution showing 95-100% inhibition of growth. […]
Where a name gives a salt, the structure may show the parent alone.

MOLECULE | UOM | MIC
CCCS(=O)(=O)Oc1ccc(CCC(C)N(C)C)cc1 (centres unmarked) | µg/mL | 20
CCCCOc1ccc(CC(CN)c2ccccc2)cc1.Cl (centres unmarked) | µg/mL | 10
CC(CCc1ccc(OCCC2CCCCC2)cc1)NC1CCCC(C(F)(F)F)C1 (centres unmarked) [Example 39, hydrochloride] | µg/mL | 5
COc1ccc(CC(c2ccccc2)C(C)N)cc1OCC1CCCCC1 (centres unmarked) [Example 71, hydrochloride] | µg/mL | 20
Cl.NCC(Cc1cccc2ccccc12)c1ccccc1 (centres unmarked) | µg/mL | 20

----------
# Test system: Aspergillus flavus M152
# EXPERIMENTAL_PROTOCOL: in vitro antifungal activity, Aspergillus flavus (MIC)
# Format: cell-based
# CONDITION_DETAILS: 35° C., 48 hours, RPMI 1640 plus 10% fetal calf serum, 95-100% inhibition of growth, read-out: minimum inhibitory concentration (MIC), A.f.
Where a name gives a salt, the structure may show the parent alone.
REPORTED_METRIC: MIC (µg/mL)

COMPOUND | READING_QUALIFIER | REPORTED_VALUE
CSCCOc1ccc(CCC(C)N(C)C)cc1 (stereo not drawn) [Example 57, hydrochloride] | = | 20
CCCCOc1ccc(CCC(C)N2CC(C)OC(C)C2)cc1 (stereo not drawn) [Example 69, hydrochloride] | > | 20
CC(CCc1ccc(OCCC2CCCCC2)cc1)NC1CCCC(C(F)(F)F)C1 (stereo not drawn) [Example 39, hydrochloride] | > | 20
CCCCOc1ccc(CCC(C)N(C)C)cc1 (stereo not drawn) [Example 41, hydrochloride] | = | 1.25
CCCCCCOc1ccc(CC(CN)c2ccccc2)cc1 (stereo not drawn) | = | 10
CCCCCCOc1ccc(CC(CN)c2ccc(OC)c(OC)c2)cc1 (stereo not drawn) [Example 16, hydrochloride] | = | 10
CC(CCc1ccc(OCCN(C)C)cc1)N(C)C (stereo not drawn) [Example 58, dihydrochloride] | = | 20
CC(CCc1ccc(OCC(=O)C(C)(C)C)cc1)N(C)C (stereo not drawn) [Example 60, hydrochloride] | = | 10
CC(CCc1ccc(OS(=O)(=O)c2ccccc2)cc1)N(C)C (stereo not drawn) | = | 20
CCCCOc1ccc(CC(CN)c2ccccc2)cc1.Cl (stereo not drawn) | = | 5
CC(CCc1ccc(OCc2ccc(Cl)cc2Cl)cc1)N(C)C (stereo not drawn) [Example 64, hydrochloride] | = | 5
CCCCOc1ccc(CCC(CC)N(C)C)cc1 (stereo not drawn) [Example 70, hydrochloride] | = | 10
CCCCCOc1ccc(CC(CN)c2ccccc2)cc1.Cl (stereo not drawn) | = | 5
COc1ccc(CC(c2ccccc2)C(C)N)cc1OCC1CCCCC1 (stereo not drawn) [Example 71, hydrochloride] | = | 10
CCCCCCCCOc1ccc(CC(CN)c2ccccc2)cc1 (stereo not drawn) | = | 10
CC(CCc1ccc(OCCCC#N)cc1)N(C)C (stereo not drawn) [Example 59, hydrochloride] | = | 20
CCCCCCOc1ccc(CC(CN)c2ccc(F)cc2)cc1 (stereo not drawn) | = | 5
CC(CCc1ccc(OCCn2ccnc2)cc1)N(C)C (stereo not drawn) | > | 20

----------
# Tested on: thromboplastin clotting time in human plasma
# EXPERIMENTAL_PROTOCOL: prothrombin time test (thromboplastin clotting time in human plasma)
# Assay type: biochemical
# CONDITION_DETAILS: 180 micrograms per milliliter of plasma; 37° C.; human plasma
Each entry below carries its recorded plasma prothrombin time.
REPORTED_METRIC: plasma prothrombin time

COMPOUND | REPORTED_METRIC | REPORTED_VALUE
CC(CCc1ccc(OCCC(C)(C)C)cc1)N(C)C.Cl (centres unmarked) [Example 79] | plasma prothrombin time | 90 s
CCCCCCCOc1ccc(CC(CN)c2ccccc2)cc1.Cl (centres unmarked) [Example 5] | plasma prothrombin time | 190 s
COCCOc1ccc(CCC(C)N(C)C)cc1.Cl (centres unmarked) [Example 76] | plasma prothrombin time | 18 s
CC(CCc1ccc(OCC2CCCC2)cc1)N(C)C (centres unmarked) [Example 81] | plasma prothrombin time | 47 s
CCCCCCOc1ccc(CC(CNC(C)C)c2ccccc2)cc1.Cl (centres unmarked) [Example 30] | plasma prothrombin time | 69 s

----------
Documented MIC across a set of compounds
# System: Candida albicans A26
# EXPERIMENTAL_PROTOCOL: in vitro antifungal activity, Candida albicans (MIC)
# Assay type: cell-based
# CONDITION_DETAILS: 35° C., 48 hours, RPMI 1640 plus 10% fetal calf serum, 95-100% inhibition of growth, read-out: minimum inhibitory concentration (MIC), C.a.
Where a name gives a salt, the structure may show the parent alone.

COMPOUND | READING_QUALIFIER | MIC / µg/mL
CCCCCCOc1ccc(CC(CN)c2ccc(OC)c(OC)c2)cc1 (stereo not drawn) [Example 16, hydrochloride] | = | 20
CC(CCc1ccc(OCc2ccccc2)cc1)N(C)C (stereo not drawn) [Example 84, hydrochloride] | = | 0.156
CCCCCOc1ccc(CC(CN)c2ccccc2)cc1.Cl (stereo not drawn) | = | 10
CC(CCc1ccc(OCC(=O)C(C)(C)C)cc1)N(C)C (stereo not drawn) [Example 60, hydrochloride] | = | 10
CCCCCCOc1ccc(CC(CN)c2ccc(F)cc2)cc1 (stereo not drawn) | = | 10
CC(CCc1ccc(OS(=O)(=O)c2ccccc2)cc1)N(C)C (stereo not drawn) | = | 10
CC(CCc1ccc(OCCN(C)C)cc1)N(C)C (stereo not drawn) [Example 58, dihydrochloride] | = | 1.25
CC(CCc1ccc(OC2CCCC2)cc1)NCCN1CCOCC1 (stereo not drawn) [Example 47, dihydrochloride] | = | 10
CCCCOc1ccc(CCC(C)N2CC(C)OC(C)C2)cc1 (stereo not drawn) [Example 69, hydrochloride] | > | 20
CCCCCCOc1ccc(CC(c2ccc(OC)cc2)C(C)N)cc1 (stereo not drawn) [Example 72, hydrochloride] | = | 10
CCCCCCOc1ccc(CC(CN)c2ccccc2)cc1 (stereo not drawn) | = | 10
CC(CCc1ccc(OCCn2ccnc2)cc1)N(C)C (stereo not drawn) | = | 5
CC(CCc1ccc(OCc2ccc(C(F)(F)F)cc2)cc1)N(C)C (stereo not drawn) [Example 65, hydrochloride] | = | 20
CCCCCCCCOc1ccc(CC(CN)c2ccccc2)cc1 (stereo not drawn) | = | 20
CC(CCc1ccc(OCCCC#N)cc1)N(C)C (stereo not drawn) [Example 59, hydrochloride] | = | 2.5
CCCCOc1ccc(CCC(CC)N(C)C)cc1 (stereo not drawn) [Example 70, hydrochloride] | = | 0.156
CSCCOc1ccc(CCC(C)N(C)C)cc1 (stereo not drawn) [Example 57, hydrochloride] | = | 1.25
CC(CCc1ccc(OCc2ccc(Cl)cc2Cl)cc1)N(C)C (stereo not drawn) [Example 64, hydrochloride] | = | 20

----------
# Tested on: Aspergillus flavus M152
# EXPERIMENTAL_PROTOCOL: in vitro antifungal activity, Aspergillus flavus (MIC)
# Format: cell-based
# CONDITION_DETAILS: 35° C., 48 hours, RPMI 1640 plus 10% fetal calf serum, 95-100% inhibition of growth, read-out: minimum inhibitory concentration (MIC), A.f.
Counter-ions that a name gives are not always drawn.
REPORTED_METRIC: MIC (µg/mL)

MOLECULE | REPORTED_VALUE
CC(CCc1ccc(OCc2ccc(C(F)(F)F)cc2)cc1)N(C)C (centres unmarked) [Example 65, hydrochloride] | 10
CCCCOc1ccc(CCC(C)N(C)CC)cc1 (centres unmarked) [Example 68, hydrochloride] | 0.625
CC(CCc1ccc(OCc2cccc(F)c2)cc1)N(C)C (centres unmarked) [Example 63, hydrochloride] | 5
CC(CCc1ccc(OCc2ccccc2)cc1)N(C)C (centres unmarked) [Example 84, hydrochloride] | 10
CC(CCc1ccc(OC2CCCC2)cc1)NCCN1CCOCC1 (centres unmarked) [Example 47, dihydrochloride] | 10

----------
# Test system: Aspergillus flavus M152
# EXPERIMENTAL_PROTOCOL: in vitro antifungal activity, Aspergillus flavus (MIC)
# Assay type: cell-based
# CONDITION_DETAILS: 35° C., 48 hours, RPMI 1640 plus 10% fetal calf serum, 95-100% inhibition of growth, read-out: minimum inhibitory concentration (MIC), A.f.
Structures can show the parent of a compound that is named as a salt.
REPORTED_METRIC: MIC (µg/mL)

MOLECULE | REPORTED_VALUE
Cl.NCC(Cc1cccc2ccccc12)c1ccccc1 (centres unmarked) | 10
CCCCCCOc1ccc(CC(c2ccc(OC)cc2)C(C)N)cc1 (centres unmarked) [Example 72, hydrochloride] | 10
CC(CCc1ccc(OCCC2CCCCC2)cc1)NCCN(C)C (centres unmarked) [Example 46, dihydrochloride] | 20
CC(CCc1ccc(OCCn2cncn2)cc1)N(C)C (centres unmarked) | 20
CCCS(=O)(=O)Oc1ccc(CCC(C)N(C)C)cc1 (centres unmarked) | 20
